test: DSSTox (CPDBAS) Carcinogenic Potency Database Summary MultiCellCall Results; conditions: animal carcinogenicity bioassays, multi-cell call summary
Activity calls are given as the source filed them.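 The calls were made as follows: active = tumour findings in long-term animal cancer tests in more than one sex, species or organ; inactive = no tumour finding and more than one negative test.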
Thanks in advance; please answer with one of these: active, inactive

Q: How was CCC1(c2ccccc2)C(=O)N=C(O)NC1=O (stereo not given) classified in this test?
Result: active

New cases:
Q: How was `O=C1C(Cl)=C(Cl)C(=O)c2ccccc21` classified in this test?
Result: inactive

Q: Next: `CC(C)=CCC/C(C)=C/C=O`
Result: inactive

Q: Next: `CN(C)c1ccc(N=NS(=O)(=O)O)cc1`
Result: inactive

----------
experiment: DSSTox (CPDBAS) Carcinogenic Potency Database Summary MultiCellCall Results; conditions: animal carcinogenicity bioassays, multi-cell call summary
Activity calls are given as the source filed them.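 Rule for the calls: active = tumour findings in long-term animal cancer tests in more than one sex, species or organ; inactive = no tumour finding and more than one negative test.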
Thanks in advance; please answer with one of these: TRUE for active, FALSE for inactive

Sample answers from the record:
Q: How was `CCC[CH2][Sn]([CH2]CCC)([CH2]CCC)[O][Sn]([CH2]CCC)([CH2]CCC)[CH2]CCC` classified in this test?
Result: FALSE

Q: Next: `FC(Cl)(Cl)Cl`
Result: FALSE

Q: Next: `Nc1cc([N+](=O)[O-])ccc1C(=O)O`
Result: FALSE

Q: Next: `CCCCCc1cc(O)c2c(c1)OC(C)(C)[C@@H]1CCC(C)=C[C@@H]21`
Result: FALSE

Q: Next: `Cn1c(=O)c2c(ncn2C)n(C)c1=O`
Result: FALSE

Q: Next: `Cc1cc2ncccc2c2nc(N)n(C)c12`
Result: TRUE

Q: Next: `Cc1ncc([N+](=O)[O-])n1CCO`
Result: TRUE

Q: Next: `O=C(Nc1nc(-c2ccc([N+](=O)[O-])o2)cs1)C(F)(F)F`
Result: TRUE

New cases:
Q: How was `ClC(Cl)(Cl)C(Cl)(Cl)Cl` classified in this test?
Result: TRUE

Q: Next: `N[C@@H](CC(=O)O)C(=O)O`
Result: FALSE

Q: Next: `CC1=C(/C=C/C(C)=C/C=C/C(C)=C/C(=O)O)C(C)(C)CCC1`
Result: FALSE

Q: Next: CC(=O)OC[C@]12C[C@H](OC(=O)CC(C)C)C(C)=C[C@H]1O[C@@H]1[C@H](O)[C@@H](OC(C)=O)[C@@]2(C)C12CO2 (stereo not given in full)
Result: TRUE

Q: Next: `Oc1ccccc1-c1ccccc1`
Result: TRUE

Q: Next: `OC[C@H]1O[C@@H]2O[C@H]3[C@H](O)[C@@H](O)[C@@H](O[C@H]4[C@H](O)[C@@H](O)[C@@H](O[C@H]5[C@H](O)[C@@H](O)[C@@H](O[C@H]6[C@H](O)[C@@H](O)[C@@H](O[C@H]7[C@H](O)[C@@H](O)[C@@H](O[C@H]8[C@H](O)[C@@H](O)[C@@H](O[C@H]1[C@H](O)[C@H]2O)O[C@@H]8CO)O[C@@H]7CO)O[C@@H]6CO)O[C@@H]5CO)O[C@@H]4CO)O[C@@H]3CO`
Result: FALSE

----------
assay: DSSTox (CPDBAS) Carcinogenic Potency Database Summary MultiCellCall Results; settings: animal carcinogenicity bioassays, multi-cell call summary
Calls of active or inactive are those of the source.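 The calls were made as follows: active = tumour findings in long-term animal cancer tests in more than one sex, species or organ; inactive = no tumour finding and more than one negative test.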
Thanks in advance; please answer with one of these: active, inactive

Sample answers from the record:
Q: How was `Cc1ccc(N)cc1` classified in this test?
Result: active

Q: Next: O=c1[nH]c(=O)n(C2CCCO2)cc1F (centres undefined)
Result: inactive

Q: Next: `N[C@@H](Cc1cnc[nH]1)C(=O)O`
Result: inactive

Q: Next: CCOC(=O)C1OC1(C)c1ccccc1 (centres undefined)
Result: inactive

Q: Next: `ClCc1ccccc1`
Result: active

Q: Next: `O=[N+]([O-])OCC(CO[N+](=O)[O-])O[N+](=O)[O-]`
Result: active

New cases:
Q: How was `Cc1ccc(S(=O)(=O)OCCN(C)N=O)cc1` classified in this test?
Result: active

Q: Next: `ClC1=C(Cl)C(Cl)(Cl)C(Cl)=C1Cl`
Result: inactive

----------
test: DSSTox (CPDBAS) Carcinogenic Potency Database Summary MultiCellCall Results; details: animal carcinogenicity bioassays, multi-cell call summary
Active and inactive are the calls of the source.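 How the source made its calls: active means tumour findings in long-term animal cancer tests in more than one sex, species or organ; inactive means no tumour finding and more than one negative test.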
Thanks in advance; please answer with one of these: true (active), false (inactive)

Sample answers from the record:
Q: How was `O=C1CCCO1` classified in this test?
Result: false

Q: Next: `c1ccc(Nc2ccc(Nc3ccccc3)cc2)cc1`
Result: false

New cases:
Q: How was `C=CC(OCC)OCC` classified in this test?
Result: false

Q: Next: `NC(=O)c1cnccn1`
Result: false

Q: Next: O=P(OCC(Br)CBr)(OCC(Br)CBr)OCC(Br)CBr (centres undefined)
Result: true

----------
assay: DSSTox (CPDBAS) Carcinogenic Potency Database Summary MultiCellCall Results; conditions: animal carcinogenicity bioassays, multi-cell call summary
Activity calls are given as the source filed them.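 Rule for the calls: active = tumour findings in long-term animal cancer tests in more than one sex, species or organ; inactive = no tumour finding and more than one negative test.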
Thanks in advance; please answer with one of these: active, inactive

Sample answers from the record:
Q: How was `c1ccc2c(c1)[nH]c1ccccc12` classified in this test?
Result: active

Q: Next: `Brc1cc(Br)c(-c2cc(Br)c(Br)cc2Br)cc1Br`
Result: active

Q: Next: `O=[N+]([O-])c1cccc2ccccc12`
Result: inactive

Q: Next: C=CCOc1ccccc1OCC(O)CNC(C)C (centres undefined)
Result: inactive

Q: Next: `NNC(N)=S`
Result: inactive

Q: Next: `CCNc1nc(Cl)nc(NC(C)C)n1`
Result: active

Q: Next: `O=S(=O)(O)c1ccc(N=Nc2c(O)ccc3cc(S(=O)(=O)O)ccc23)cc1`
Result: inactive

Q: Next: `S=C1NCCN1`
Result: active

New cases:
Q: How was `COc1ccc(N)cc1` classified in this test?
Result: inactive

Q: Next: `OCl`
Result: inactive

Q: Next: `Nc1nc(/C=C/c2ccc([N+](=O)[O-])o2)no1`
Result: active

Q: Next: `CN(C)c1ccc(Cc2ccc(N(C)C)cc2)cc1`
Result: active

Q: Next: `O=NN1C[C@H](O)C[C@H]1C(=O)O`
Result: inactive

Q: Next: `Brc1cc(Br)c2cccnc2c1`
Result: inactive

Q: Next: `C=CN1CCCC1=O`
Result: active

Q: Next: `CC(=O)OC[C@H]1O[C@H](O[C@]2(COC(C)=O)O[C@H](COC(=O)C(C)C)[C@@H](OC(=O)C(C)C)[C@@H]2OC(=O)C(C)C)[C@H](OC(=O)C(C)C)[C@@H](OC(=O)C(C)C)[C@@H]1OC(=O)C(C)C`
Result: inactive

----------
experiment: DSSTox (CPDBAS) Carcinogenic Potency Database Summary MultiCellCall Results; settings: animal carcinogenicity bioassays, multi-cell call summary
Activity calls are given as the source filed them.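 How the source made its calls: active means tumour findings in long-term animal cancer tests in more than one sex, species or organ; inactive means no tumour finding and more than one negative test.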
readout_label: outcome

Use the examples below as a reference point.
Q: Return reported outcome; argument: `CC(=O)O[C@H]1CC[C@@]2(C)C(=CC[C@@H]3[C@@H]2CC[C@]2(C)C(=O)CC[C@@H]32)C1`
Result: active; multisex active

Q: Next: `CCn1nc(C)c2c1C(c1ccccc1)=NCC(=O)N2`
Result: active; multisex active

Q: Next: `CCCCCCCCCCCCCCN(C)N=O`
Result: active; multisite active

Q: Next: `Nc1ncc([N+](=O)[O-])s1`
Result: active; multisite active

Q: Next: CC(C(O)c1ccccc1)N(C)N=O (stereo not drawn)
Result: active; multisite active

# batch size: 4; output outcome per entry
1. CC[C@H](OC(C)=O)C(C[C@H](C)N(C)C)(c1ccccc1)c1ccccc1
2. ClC/C=C/CCl
3. CO[C@@]12[C@H](COC(N)=O)C3=C(C(=O)C(C)=C(N)C3=O)N1C[C@@H]1N[C@@H]12
4. Cn1cnc([N+](=O)[O-])c1Sc1ncnc2nc[nH]c12

Result:
1. active; multisex active
2. active; multisex active
3. active; multisex active
4. active; multisite active

----------
experiment: DSSTox (CPDBAS) Carcinogenic Potency Database Summary MultiCellCall Results; details: animal carcinogenicity bioassays, multi-cell call summary
Activity calls are given as the source filed them.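 How the source made its calls: active means tumour findings in long-term animal cancer tests in more than one sex, species or organ; inactive means no tumour finding and more than one negative test.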
Thanks in advance; please answer with one of these: active, inactive

Q: How was `NCCNc1cccc2ccccc12` classified in this test?
Result: inactive

Q: Next: `O=C(Nc1cccc2c(=O)cc(-c3nn[nH]n3)oc12)c1ccc(OCCCCc2ccccc2)cc1`
Result: inactive

Q: Next: `CN1C(=O)C[C@@H](C(=O)N[C@@H](Cc2cnc[nH]2)C(=O)N2CCC[C@H]2C(N)=O)NC1=O`
Result: inactive

Q: Next: CC(=O)C(N=Nc1ccc(Cl)cc1Cl)C(=O)Nc1ccc(-c2ccc(NC(=O)C(N=Nc3ccc(Cl)cc3Cl)C(C)=O)c(C)c2)cc1C (stereo unspecified)
Result: inactive

Q: Next: `CCC1(c2ccccc2)C(=O)NCNC1=O`
Result: active

New cases:
Q: How was `Cc1cc(OC(=O)N(C)C)n(C(C)C)n1` classified in this test?
Result: inactive
